Below, each entry is listed alongside its reported %Inh.
- Tested on: TAOK1
- assay setup: concentration: 1 μM,replicates: in singlicate; n = 1;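 also: KINOMEscan kinase panel screen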
Give just the number in %; leave the unit off.

Example molecules with recorded %Inh:
>  <compound string>
FC(F)(F)c1cc(Br)cc(Nc2nccc(-c3cnn4ncccc34)n2)c1

>  <%Inh / %>
58

$$$$
>  <compound string>
O=C(NCC1CC1)c1ccc(-c2cc(C(=O)NC3CC3)ccc2F)cc1

>  <%Inh / %>
0

$$$$
>  <compound string>
O=C1NCCc2[nH]c(-c3ccncc3)cc21

>  <%Inh / %>
96.9

$$$$

// query Would you kindly share the measured %Inh for `Cc1ccc(Nc2ccnc(Nc3ccc4c(c3)CS(=O)(=O)C4)n2)cc1O.Cl` ?
// result 81

----------
- Test system: EPHB4
- assay setup: concentration: 1 μM,replicates: in singlicate; n = 1
Below, each entry is listed alongside its reported %Inh.
Give just the number in %; leave the unit off.

Example compounds with recorded %Inh:
>  <compound>
Cn1cc(-c2cccc3c(N)c(C(N)=O)nnc23)cn1

>  <test system>
EPHB4

>  <unit abbrev>
%

>  <%Inh>
5

$$$$
>  <compound>
Cl.c1ccc(Oc2ccc(Nc3ccnc4cc(-c5ccc(CN6CCNCC6)o5)ccc34)cc2)nc1 [GW567142]

>  <test system>
EPHB4

>  <unit abbrev>
%

>  <%Inh>
4

$$$$
>  <compound>
CC(C)c1nc(-c2cccc(NS(=O)(=O)c3ccccc3)c2)c(-c2ccnc(Nc3ccc4c(c3)CN(C)CC4)n2)s1 [GSK1649598]

>  <test system>
EPHB4

>  <unit abbrev>
%

>  <%Inh>
11

$$$$

// query Would you kindly share the measured %Inh for Cc1ccc(Nc2ccnc(Nc3ccc4c(c3)CS(=O)(=O)C4)n2)cc1O.Cl [GW579362] ?
// result 16

// query Would you kindly share the measured %Inh for `Cn1ccc2ncnc(Oc3ccc(NC(=O)Nc4cc(C(C)(C)C)on4)c(Cl)c3)c21` ?
// result 35

// query Would you kindly share the measured %Inh for COC(=O)c1cccc(NC(=O)NC2CCN(c3ccnc(NCc4ccc(F)cc4)n3)CC2)c1 [GSK1379860] ?
// result 4

// query Would you kindly share the measured %Inh for CN1CCN(CCCNc2nccc(-c3c(-c4ccc(F)cc4)nn4cc(C(N)=O)ccc34)n2)CC1 [GW622475] ?
// result 20

// query Would you kindly share the measured %Inh for COc1cc2c(Nc3ccc(NC(=O)c4ccccc4)cc3)ncnc2cc1OCCCN1CCOCC1 [GSK301329] ?
// result 2

----------
Below, each entry is listed alongside its reported %Inh.
- Tested on: MST3
- Construct: gene STK24
- assay setup: concentration: 1 μM,replicates: in singlicate; n = 1
Give just the number in %; leave the unit off.

Example compounds with recorded %Inh:
>  <compound>
O=C(Nc1ccccc1)c1cccc(Oc2ccc3nccn3n2)c1

>  <test system>
MST3

>  <unit abbrev>
%

>  <%Inh>
37

$$$$
>  <compound>
CC(C(=O)NC1CCN(c2ccnc(Nc3ccc(F)cc3)n2)C1)c1ccc(Cl)cc1 (stereo not drawn)

>  <test system>
MST3

>  <unit abbrev>
%

>  <%Inh>
0

$$$$
>  <compound>
O=C(Nc1cccc(Oc2ccc3nccn3n2)c1)Nc1cccc(C(F)(F)F)c1

>  <test system>
MST3

>  <unit abbrev>
%

>  <%Inh>
0

$$$$

// query Would you kindly share the measured %Inh for N#Cc1cccc(C(=O)NC2CCN(c3ccnc(Nc4ccc(F)cc4)n3)C2)c1 (stereo not drawn) ?
// result 0

// query Would you kindly share the measured %Inh for `O=c1[nH]cc(-c2ccc(O)cc2)c2sc(-c3ccncc3)cc12` ?
// result 6

// query Would you kindly share the measured %Inh for `NC(=O)Nc1sc(-c2ccc(F)cc2)cc1C(N)=O` ?
// result 21

// query Would you kindly share the measured %Inh for `Cn1cc(-c2cccc3c(N)c(C(N)=O)nnc23)cn1` ?
// result 51

// query Would you kindly share the measured %Inh for `Cc1n[nH]c2cc(Nc3ccnc(Nc4cccc(CN5CCOCC5)c4)n3)ccc12` ?
// result 14

// query Would you kindly share the measured %Inh for CCNCC(Cc1ccccc1)NC(=O)c1cc(Br)c(-c2ccnc3[nH]ccc23)s1.Cl.Cl (stereo not drawn) ?
// result 1

----------
Below, each entry is listed alongside its reported %Inh.
- System: ERBB2
- assay setup: concentration: 1 μM,replicates: in singlicate; n = 1

Example compounds with recorded %Inh:
>  <compound string>
C[C@@H]1CNc2c(sc3ccc4nc(-c5ccncc5)ccc4c23)C(=O)N1

>  <%Inh>
14%

$$$$
>  <compound string>
C[C@@H](Oc1cc(-n2cnc3cc(-c4cnn(C)c4)ccc32)sc1C(N)=O)c1ccccc1Cl

>  <%Inh>
0%

$$$$
>  <compound string>
CCCC(=O)Nc1n[nH]c2ncccc12

>  <%Inh>
0%

$$$$
>  <compound string>
Cc1cccc(-c2nc(Nc3ccncc3)c3sccc3n2)n1

>  <%Inh>
29%

$$$$
>  <compound string>
CC(=O)Nc1ccc(-c2cc3ncnc(SCC(=O)O)c3s2)cc1

>  <%Inh>
6%

$$$$

// query For ERBB2, provide %Inh of `Cn1ccc2ncnc(Oc3ccc(NC(=O)Nc4cc(C(C)(C)C)on4)c(Cl)c3)c21` please.
// result 81%

// query For ERBB2, provide %Inh of `CN1CCN(CCNc2nc3cc(Oc4ccc(NC(=O)Nc5cc(C(F)(F)F)ccc5F)cc4)ccc3[nH]2)CC1.Cl.Cl` please.
// result 0%

// query For ERBB2, provide %Inh of `O=C(Nc1cccc(Oc2ccc3nccn3n2)c1)Nc1cccc(C(F)(F)F)c1` please.
// result 22%

// query For ERBB2, provide %Inh of `C[C@@H]1CNc2c(sc3ccc4nc(-c5ccc(O)cc5)ccc4c23)C(=O)N1` please.
// result 26%

----------
- Test system: CAMK2G
- assay setup: concentration: 1 μM,replicates: in singlicate; n = 1
readout label: %Inh
Write your answer as a measured quantity: the number, then the unit.

>  <molecule>
Cc1ccn2nc(-c3ccc(F)cc3)c(-c3ccncc3)c2c1.Cl [GW457859]

>  <%Inh>
15%

$$$$
>  <molecule>
CN1CCN(CCCNc2nccc(-c3c(-c4ccc(F)cc4)nn4cc(C(N)=O)ccc34)n2)CC1 [GW622475]

>  <%Inh>
37%

$$$$
>  <molecule>
Cn1ccc2ncnc(Oc3ccc(NC(=O)Nc4cccc(C(F)(F)F)c4)c(Cl)c3)c21

>  <%Inh>
0%

$$$$
>  <molecule>
Cc1cccc(-c2nc(Nc3ccncc3)c3sccc3n2)n1 [GW869641]

>  <%Inh>
18%

$$$$
>  <molecule>
CCOC(=O)N1CCC(n2cnc(-c3ccc(F)cc3)c2-c2ccnc(N)n2)CC1 [SB-219952]

>  <%Inh>
8%

$$$$

// query Would you kindly share the measured %Inh for CCNCC(Cc1ccccc1)NC(=O)c1cc(Br)c(-c2ccnc3[nH]ccc23)s1.Cl.Cl (stereo not drawn) [GSK1383280] ?
// result 34%

// query Would you kindly share the measured %Inh for C[C@@H](Oc1cc(-n2cnc3ccc(-c4ccncc4)cc32)sc1C(N)=O)c1ccccc1Cl [GSK483724] ?
// result 37%

// query Would you kindly share the measured %Inh for Cc1nnc(-c2ccc3occ(-c4ccc(S(C)=O)cc4)c3n2)o1 (stereo not drawn) ?
// result 0%

// query Would you kindly share the measured %Inh for `CC(=O)Nc1nc2cnc(Nc3cc(NC(=O)c4cccc(CC(C)(C)C#N)c4)ccc3C)nc2s1` ?
// result 14%

----------
- Test system: NEK2
- assay setup: concentration: 1 μM,replicates: in singlicate; n = 1
readout label: %Inh (%)
Give just the number in %; leave the unit off.

>  <compound>
COc1cccc(OC)c1C(=O)Nc1cccc(-c2nn3ccccc3c2-c2ccnc(Nc3cccc(F)c3)n2)c1

>  <%Inh (%)>
4

$$$$

// query Would you kindly share the measured %Inh for `Cn1ccc2ncnc(Oc3ccc(NC(=O)Nc4cc(C(C)(C)C)on4)c(Cl)c3)c21` ?
// result 17

----------
- Test system: AXL
- assay setup: concentration: 1 μM,replicates: in singlicate; n = 1
For each record, check the reported %Inh: if it is below 10% write Satisfied, else write Not satisfied.

Sample answers from the record:
>  <compound>
Cl.Nc1n[nH]c2cc(-c3ccccn3)ccc12 [GSK2189892]

>  <class assignment>
Satisfied

$$$$
>  <compound>
C[C@@H]1CNc2c(sc3ccc4nc(-c5ccc(O)cc5)ccc4c23)C(=O)N1

>  <class assignment>
Not satisfied

$$$$
>  <compound>
CN(c1cccc(CNc2nc(Nc3ccc4c(c3)CC(=O)N4)ncc2C(F)(F)F)c1)S(C)(=O)=O

>  <class assignment>
Not satisfied

$$$$

Next, consider the following compound.
// query Does this compound meet the criterion %Inh < 10%? CCn1c(-c2nonc2N)nc2cncc(CNC3CCNCC3)c21.Cl [SB-747651]
// result Not satisfied
